List of Activity values.
- Test system: West Nile virus
- measurement.notes: Antiviral activity against West Nile virus infected in African green monkey Vero E6 cells assessed as virus yield reduction at 50 uM after 3 days by crystal violet staining based plaque assay relative to control
- Assay type: functional
- Design: scale not given: the % may be the effect or the level left
Write the answer as a number in %, unit excluded.

Record excerpt, results attached:
[[record]]
structure_as_smiles = "NCCC[C@H](NC(=O)c1ccccc1)B(O)O"
experimental_target = "West Nile virus"
result = 33

[[record]]
structure_as_smiles = "N=C(N)NCCC[C@H](NC(=O)[C@H](Cc1cccc(NC(=N)N)c1)NC(=O)c1ccccc1)B(O)O"
experimental_target = "West Nile virus"
result = 38

[[record]]
structure_as_smiles = "N=C(N)NCCC[C@H](NC(=O)c1ccccc1)B(O)O"
experimental_target = "West Nile virus"
result = 19

[[record]]
structure_as_smiles = "N=C(N)NCCC[C@H](NC(=O)[C@@H](NC(=O)c1ccccc1)c1cccc(NC(=N)N)c1)B(O)O"
experimental_target = "West Nile virus"
result = 47


Turning now to a further record.
Consider the compound CC(C)(C)c1ccc(C(=O)N[C@@H](Cc2ccc(NC(=N)N)cc2)C(=O)N[C@@H](CCCNC(=N)N)B(O)O)cc1 and give its recorded Activity.
30

* * *

- measurement.notes: Inhibition of West Nile virus His-tagged NS2B-NS3 protease expressed in Escherichia coli BL21(DE3) using Abz-Gly-Leu-Lys-Arg-Gly-Gly-3-(NO2)Tyr as substrate preincubated for 15 mins followed by substrate addition measured for 15 mins by fluorescence assay
log10 of IC50 for assorted compounds
Recall that a logarithmic scale is used here: each number is log10 of IC50 in nM.

[[record]]
structure_as_smiles = "N=C(N)NCCC[C@H](NC(=O)[C@H](Cc1cccc(NC(=N)N)c1)NC(=O)c1ccccc1)B(O)O"
result = 2.49

[[record]]
structure_as_smiles = "N=C(N)NCCC[C@H](NC(=O)[C@@H](NC(=O)c1ccccc1)c1cccc(NC(=N)N)c1)B(O)O"
result = 2.15


Turning to the following compound.
Tell us which log10 of IC50 value is on record for N=C(N)NCCC[C@H](NC(=O)[C@H](Cc1ccc(CN)cc1)NC(=O)c1ccccc1)B(O)O
2.04

* * *

- measurement.notes: Cytotoxicity against human HuH7 cells assessed as reduction in cell viability after 48 hrs by CellTiter-Glo assay
- Assay type: toxicity, cell-based, Huh-7
Reported CC50 at 48 h is given for each of the following molecules.

Some molecules with known CC50 at 48 h results, for comparison:
[[record]]
structure_as_smiles = "NCCC[C@H](NC(=O)c1ccccc1)B(O)O"
result = "> 100 µM"

[[record]]
structure_as_smiles = "N=C(N)NCCC[C@H](NC(=O)[C@H](Cc1ccc(CN)cc1)NC(=O)c1ccccc1)B(O)O"
result = "> 100 µM"

[[record]]
structure_as_smiles = "N=C(N)NCCC[C@H](NC(=O)[C@@H](NC(=O)c1ccccc1)c1cccc(NC(=N)N)c1)B(O)O"
result = "> 100 µM"

[[record]]
structure_as_smiles = "N=C(N)NCCC[C@H](NC(=O)[C@H](Cc1ccc(N)cc1)NC(=O)c1ccccc1)B(O)O"
result = "10.1 µM"

[[record]]
structure_as_smiles = "N=C(N)NCCC[C@H](NC(=O)c1ccccc1)B(O)O"
result = "> 100 µM"

[[record]]
structure_as_smiles = "N=C(N)NCCC[C@H](NC(=O)[C@H](Cc1ccc(NC(=N)N)cc1)NC(=O)c1ccccc1)B(O)O"
result = "> 100 µM"


Provide only the value of recorded CC50 at 48 h for N=C(N)NCCC[C@H](NC(=O)[C@H](Cc1cccc(NC(=N)N)c1)NC(=O)c1ccccc1)B(O)O
≥ 100 µM

Give recorded CC50 at 48 h. CC(C)(C)c1ccc(C(=O)N[C@@H](Cc2ccc(NC(=N)N)cc2)C(=O)N[C@@H](CCCNC(=N)N)B(O)O)cc1
> 100 µM
